System: KM12 colon
Experiment: NCI tumour cell line growth inhibition, 48 h; in the data active = GI50 below about 0.43 µM; inactive = the rest
Outcomes: active, inactive

>  <compound>
CC(=O)OC[C@H]1OC(O)C=C[C@@H]1OC(C)=O (some centres undefined)

>  <qualitativeLabel>
inactive

$$$$
>  <compound>
C#CCN(C)CCCOc1ccc(NC(=O)CCCCCCC(=O)NO)cc1Cl

>  <qualitativeLabel>
inactive

$$$$
>  <compound>
Cc1ccc(C(=O)Nc2ccc(CNCCN3CCOCC3)c(C(F)(F)F)c2)cc1C#Cc1cnc2cccnn12

>  <qualitativeLabel>
active

$$$$
>  <compound>
CS(=O)(=O)Nc1cc(-c2ccc3ncc(C#N)c(Nc4cccc(Cl)c4F)c3c2)cnc1Cl

>  <qualitativeLabel>
active

$$$$
